system: monoclonal antibody MV-004; assay: In vitro binding assay (ELISA), BSA-coupled peptides, parental antibody MV-004; design: species or system BalbC mice; conditions: Table 1B; peptide-BSA on plate, compared to original epitope
MEASURED ENDPOINT: Binding Capacity

Asked: State the recorded Binding Capacity for this entry: ELWHRAC [p4786]
Given back: 1 (weak binding :<24000)

Asked: Endpoint output: Binding Capacity of EVWHRGC [p4788] . Value?
Given back: 1 (weak binding :<24000)

Asked: Which Binding Capacity value is on record for ERWHEKHC [p4418] ?
Given back: 3 (strong binding :>96000)

Asked: # lookup: Binding Capacity of ERWHEKC [p4790]
Given back: 1 (weak binding :<24000)

Asked: What does the data say about its Binding Capacity? Entry: EVWHRHC [p4789]
Given back: 1 (weak binding :<24000)

Asked: What value of Binding Capacity has been recorded for this entry: ELWHRAFC [p4665]
Given back: 2 (medium binding :24-96000)

Asked: Consider the substance shown here: EVWHRHQC [p4417] What is its recorded Binding Capacity?
Given back: 2 (medium binding :24-96000)

Asked: Query: Binding Capacity; subject: ELWHRYPC [p4420]
Given back: 2 (medium binding :24-96000)

###

test system: monoclonal antibody MV-001; assay: In vitro binding assay (ELISA), BSA-coupled peptides, parental antibody MV-001; design: species or system C57/B16 mice; details: Table 1C; peptide-BSA on plate, compared to original epitope
MEASURED ENDPOINT: Binding Capacity

Asked: # input substance: TEFRHKAC [p4753] ; wanted: its Binding Capacity
Given back: 3 (strong binding :>20000)

Asked: May I ask what Binding Capacity has been recorded for SAGSFRHC [p4710] ?
Given back: 3 (strong binding :>20000)

Asked: Which Binding Capacity is reported for this substance? CHEFRH [p4802]
Given back: 3 (strong binding :>20000)

Asked: Which Binding Capacity reading was recorded for the substance TSVFRHC [p4383] ?
Given back: 3 (strong binding :>20000)

Asked: Could you tell me which Binding Capacity is on file for SNSEFRRC [p4743] ?
Given back: 3 (strong binding :>20000)

Asked: Requested field: Binding Capacity. Item: QFKHDLC [p4391]
Given back: 2 (medium binding :4000-20000)

Asked: What value of Binding Capacity has been recorded for this entry: SAMRHSLC [p4732]
Given back: 2 (medium binding :4000-20000)

Asked: Look up Binding Capacity: EDWFFWHC [p4709]
Given back: 1 (weak binding :<4000)

Asked: Please look up its Binding Capacity: HEPLFSHC [p4719]
Given back: 1 (weak binding :<4000)

Asked: Using the record for APMYFPHC [p4717] , report its Binding Capacity.
Given back: 2 (medium binding :4000-20000)

Asked: Binding Capacity lookup needed for ATFRHSPC [p4716] , thanks.
Given back: 2 (medium binding :4000-20000)

Asked: If you can, please state the reported Binding Capacity value of MLPFRHGC [p4731] .
Given back: 2 (medium binding :4000-20000)

Asked: Looking for the measured Binding Capacity of EFLRHTLC [p4722] , can you help?
Given back: 3 (strong binding :>20000)

Asked: Fill in: Binding Capacity of TLHEFRHC [p4715] is ___
Given back: 3 (strong binding :>20000)

Asked: Would you kindly share the measured Binding Capacity for GEMRHQPC [p4702] ?
Given back: 3 (strong binding :>20000)

Asked: Given the substance SNFRHSVC [p4749] , what is its reported Binding Capacity?
Given back: 3 (strong binding :>20000)

Asked: Consider the substance LQFKHSTC [p4734] and give its measured Binding Capacity.
Given back: 2 (medium binding :4000-20000)

Asked: What value of Binding Capacity has been reported for the following substance? SEFKHC [p4801]
Given back: 3 (strong binding :>20000)

Asked: Look at this substance and give its reported Binding Capacity. TSFRHGC [p4382]
Given back: 2 (medium binding :4000-20000)

Asked: Consider the substance shown here: THTDFRHC [p4725] What is its recorded Binding Capacity?
Given back: 3 (strong binding :>20000)

Asked: Binding Capacity for IGFRHDSC [p4742] ?
Given back: 2 (medium binding :4000-20000)

Asked: Find the recorded Binding Capacity belonging to LPFRHGC [p4388] and report it.
Given back: 2 (medium binding :4000-20000)

Asked: Consider the substance shown here: AANYFPRC [p4706] What is its recorded Binding Capacity?
Given back: 2 (medium binding :4000-20000)

Asked: Using the record for SLMRHSSC [p4721] , report its Binding Capacity.
Given back: 2 (medium binding :4000-20000)

Asked: Binding Capacity lookup needed for TPLMFWHC [p4733] , thanks.
Given back: 1 (weak binding :<4000)

Asked: Return reported Binding Capacity; argument: NELRHSTC [p4701]
Given back: 3 (strong binding :>20000)

Asked: Could you share which Binding Capacity value was measured for DGLLFKHC [p4741] ?
Given back: 3 (strong binding :>20000)

Asked: // returns reported Binding Capacity for input QDFRHYC [p4380]
Given back: 2 (medium binding :4000-20000)

Asked: So what's the measured Binding Capacity for this one? DTYFPRSC [p4703]
Given back: 2 (medium binding :4000-20000)

Asked: Field request: Binding Capacity | item: ATFRHSTC [p4735]
Given back: 2 (medium binding :4000-20000)

Asked: Endpoint output: Binding Capacity of SQSYFKHC [p4755] . Value?
Given back: 3 (strong binding :>20000)

Asked: Sample THMEFRRC [p4745] — what was its Binding Capacity?
Given back: 3 (strong binding :>20000)

Asked: For the substance QPNLFYHC [p4713] , what Binding Capacity is on record?
Given back: 1 (weak binding :<4000)

meta.source: patent US20130287807A1
